Target: Galectin-3 (Homo sapiens)
Assay: Fluorescent polarization assay with fluorescent ligand
Format: binding
Property measured: IC50 (nM)

Compound	Readout units	Experimental value
OCC1OC([Se][Se]C2OC(CO)C(O)C(n3cc(-c4cccc(F)c4)nn3)C2O)C(O)C(n2cc(-c3cccc(F)c3)nn2)C1O (centres unmarked)	nM	5290
OC[C@H]1O[C@@H]([Se][C@@H]2O[C@H](CO)[C@H](O)[C@H](n3cc(-c4cccc(F)c4)nn3)[C@H]2O)[C@H](O)[C@@H](n2cc(-c3cccc(F)c3)nn2)[C@H]1O	nM	259

---

Recorded measurements of IC50, one per entry
Molecular target: Galectin-3 (Homo sapiens, UniProt P17931)
Sequence (P17931 whole entry): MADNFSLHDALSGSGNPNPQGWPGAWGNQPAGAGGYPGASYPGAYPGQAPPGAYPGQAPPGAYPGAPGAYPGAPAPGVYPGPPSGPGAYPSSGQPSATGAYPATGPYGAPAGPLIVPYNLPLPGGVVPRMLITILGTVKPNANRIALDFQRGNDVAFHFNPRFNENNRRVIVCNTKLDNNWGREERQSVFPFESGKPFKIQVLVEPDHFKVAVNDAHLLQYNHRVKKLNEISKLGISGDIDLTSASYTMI
Assay: ELISA of Galectin-3 binding inhibition (anti-Galectin-3 antibodies)
Property measured: IC50 (nM)

Molecule	Experimental value
OCC1OC([Se][Se]C2OC(CO)C(O)C(n3cc(-c4cccc(F)c4)nn3)C2O)C(O)C(n2cc(-c3cccc(F)c3)nn2)C1O (centres unmarked) [G-626]	1160
OC[C@H]1O[C@@H]([Se][C@@H]2O[C@H](CO)[C@H](O)[C@H](n3cc(-c4cccc(F)c4)nn3)[C@H]2O)[C@H](O)[C@@H](n2cc(-c3cccc(F)c3)nn2)[C@H]1O [G-625]	14.4
